- Test system: S. pneumoniae
- PROCEDURE DETAILS: inhibition of adherence of S. pneumoniae to respiratory epithelial cells
- Type: cell-based
- EXPERIMENTAL SETUP: Streptococcus pneumoniae, Epithelial cell, read-out: IC50 [mean (SD)], Monovalent; Chang human conjunctival carcinoma
Entries and their IC50 values follow.
Record the value in mM, omitting the unit from your answer.

| MOLECULE | READING |
| --- | --- |
| CC(=O)N[C@H]1[C@H](O[C@H]2[C@@H](O)[C@@H](CO)O[C@@H](O[C@H]3[C@H](O)[C@@H](O)C(O)O[C@@H]3CO)[C@@H]2O)O[C@H](CO)[C@@H](O[C@@H]2O[C@H](CO)[C@H](O)[C@H](O)[C@H]2O)[C@@H]1O (stereo partly shown) | 8 |
| CC(=O)N[C@H]1[C@H](O[C@H]2[C@@H](O)[C@@H](CO)O[C@@H](O[C@H]3[C@H](O)[C@@H](O)C(O)O[C@@H]3CO)[C@@H]2O)O[C@H](CO)[C@@H](O[C@@H]2O[C@H](CO[C@]3(C(=O)O)C[C@H](O)[C@@H](NC(C)=O)[C@H]([C@H](O)[C@H](O)CO)O3)[C@H](O)[C@H](O)[C@H]2O)[C@@H]1O (stereo partly shown) | 1.4 |

# input for lookup
[in] // query IC50 value for entry CC(=O)N[C@H]1[C@H](O[C@H]2[C@@H](O)[C@@H](CO)O[C@@H](O[C@H]3[C@H](O)[C@@H](O)C(O)O[C@@H]3CO)[C@@H]2O)O[C@H](CO)[C@@H](O[C@@H]2O[C@H](CO)[C@H](O)[C@H](O[C@]3(C(=O)O)C[C@H](O)[C@@H](NC(C)=O)[C@H]([C@H](O)[C@H](O)CO)O3)[C@H]2O)[C@@H]1O (stereo partly shown)
[out] 0.6
